Source: patent US6855730B2

Listed here: molecules with reported pIC50 for flkGST (Homo sapiens, UniProt P35968).
To interpret pIC50, take it as minus log10 of a concentration measured in moles per litre.

Sample records with pIC50:
{"test_smiles": "Cc1cc(CCC(=O)O)c(/C=C2\\C(=O)Nc3cc(-c4ccc(F)cc4)ccc32)[nH]1", "recorded_endpoint": "pIC50", "value_observed": 5.67}
{"test_smiles": "O=C(O)CCc1c(/C=C2\\C(=O)Nc3ccccc32)[nH]c2c1CCCC2", "recorded_endpoint": "pIC50", "value_observed": 7.06}
{"test_smiles": "CCOC(=O)c1[nH]c(/C=C2\\C(=O)Nc3cc(Br)ccc32)c(CCC(=O)O)c1C", "recorded_endpoint": "pIC50", "value_observed": 4.67}

Consider now this further molecule.
Ask | State, for flkGST (Homo sapiens, UniProt P35968), measured pIC50 of the molecule listed here: Cc1c(/C=C2\C(=O)Nc3ccc(S(N)(=O)=O)cc32)[nH]c2ccccc12
Reply | 5.82

###

# measurement_target: EGFR (Homo sapiens, UniProt P00533)
# Sequence (P00533 25-1210): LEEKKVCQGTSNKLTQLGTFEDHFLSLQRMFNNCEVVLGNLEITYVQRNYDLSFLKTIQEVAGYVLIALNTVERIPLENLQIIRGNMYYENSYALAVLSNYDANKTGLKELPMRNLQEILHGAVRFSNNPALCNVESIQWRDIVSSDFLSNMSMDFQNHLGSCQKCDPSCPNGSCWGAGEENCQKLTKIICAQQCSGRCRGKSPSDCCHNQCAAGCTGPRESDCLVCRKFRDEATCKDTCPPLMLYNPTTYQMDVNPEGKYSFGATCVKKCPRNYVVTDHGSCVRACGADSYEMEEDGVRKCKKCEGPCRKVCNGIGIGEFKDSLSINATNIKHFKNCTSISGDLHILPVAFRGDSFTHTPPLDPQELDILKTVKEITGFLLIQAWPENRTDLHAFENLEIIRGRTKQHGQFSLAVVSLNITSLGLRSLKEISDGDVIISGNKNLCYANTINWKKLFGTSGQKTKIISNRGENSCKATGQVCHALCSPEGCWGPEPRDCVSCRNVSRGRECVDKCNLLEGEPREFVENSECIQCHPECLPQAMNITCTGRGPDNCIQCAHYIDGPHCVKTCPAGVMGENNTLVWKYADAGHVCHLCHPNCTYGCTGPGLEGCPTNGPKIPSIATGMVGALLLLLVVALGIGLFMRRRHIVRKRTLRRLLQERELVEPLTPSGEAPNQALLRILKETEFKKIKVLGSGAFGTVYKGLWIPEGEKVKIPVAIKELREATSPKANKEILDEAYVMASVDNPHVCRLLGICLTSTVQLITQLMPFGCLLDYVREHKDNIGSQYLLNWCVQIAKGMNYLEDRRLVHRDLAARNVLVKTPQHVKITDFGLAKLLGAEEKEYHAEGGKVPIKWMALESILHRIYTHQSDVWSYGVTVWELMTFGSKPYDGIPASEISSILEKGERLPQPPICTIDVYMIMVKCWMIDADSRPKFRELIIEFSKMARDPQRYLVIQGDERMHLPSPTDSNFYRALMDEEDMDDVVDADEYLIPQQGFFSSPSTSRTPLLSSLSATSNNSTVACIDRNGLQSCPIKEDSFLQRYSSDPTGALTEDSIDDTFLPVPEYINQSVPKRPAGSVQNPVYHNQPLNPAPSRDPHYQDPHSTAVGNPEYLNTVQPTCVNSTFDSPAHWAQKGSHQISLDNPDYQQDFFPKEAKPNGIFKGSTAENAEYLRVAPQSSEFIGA
# assay_name: Biochemical EGFR assay (ELISA, A431 cell lysate)
# Set-up: A431 cell lysate (Screening Lab, SUGEN, Inc.); host or cells: A431
# run_conditions: read-out: bio EGFr IC50
recorded_endpoint: IC50

{"compound": "CCOC(=O)c1c(C)[nH]c(/C=C2\\C(=O)Nc3ccc(S(=O)(=O)NC)cc32)c1CCCN(C)C", "IC50": "> 100 µM"}

Ask | Fill in reported IC50 for this entry: O=C1Nc2ccccc2/C1=C/c1[nH]c2c(c1CCC(=O)N1CCOCC1)CCCC2
Reply | > 100 µM

Ask | Fill in IC50 for record CCOC(=O)c1c(C)[nH]c(/C=C2\C(=O)Nc3cccc(CCO)c32)c1CCCN(C)C
Reply | 0.19 µM

Ask | Supply IC50 value. Item: CC(=O)Nc1ccc2c(c1)NC(=O)/C2=C\c1ccc2c(c1)CCC(C)(C)O2
Reply | > 100 µM

Ask | Give me measured IC50, please, for this compound: COc1ccc(C=C2C(=O)Nc3cc(NC(C)=O)ccc32)cc1-c1cccc(NC(C)=O)c1 (mixture of isomers)
Reply | > 100 µM

###

# measurement_target: UniProt:P00533
# assay_name: EGF-induced BrdU incorporation assay
# run_conditions: read-out: BrdU EGF driven IC50
Listed here are compounds together with their documented IC50.
Answer in µM, number only, no unit symbol.

# example entries with known answers
{"compound": "COc1c(C(C)C)cc(/C=C2/C(=O)Nc3ccc(N)cc32)cc1C(C)C [Example 20]", "IC50 / µM": 30}
{"compound": "CCOc1cccc(-c2cc(OC)c(OC)cc2/C=C2/C(=O)Nc3ccccc32)c1 [Example 58]", "IC50 / µM": 27.5}
{"compound": "COc1ccc(/C=C2/C(=O)Nc3ccccc32)cc1C1CCCCC1 [Example 12]", "IC50 / µM": 30.6}
{"compound": "COc1cc(C=C2C(=O)Nc3ccccc32)c(-c2ccccc2OC)cc1OC [Example 49]", "IC50 / µM": 24.1}
{"compound": "COc1cc(/C=C2/C(=O)Nc3ccccc32)c(-c2cccs2)cc1OC [Example 39]", "IC50 / µM": 16.2}
{"compound": "COc1c(C(C)C)cc(/C=C2/C(=O)Nc3cc(NC(C)=O)ccc32)cc1C(C)C [Example 3]", "IC50 / µM": 11}

Ask | Look up UniProt:P00533 data: IC50 of COc1cc(C)c(C=C2C(=O)Nc3cc(NC(C)=O)ccc32)cc1C(C)C [Example 27] , then report it.
Reply | 26.8

Ask | Look up and report IC50, with UniProt:P00533 as system, for COc1c(C(C)C)cc(/C=C2/C(=O)Nc3ccccc32)cc1C(C)C [Example 1]
Reply | 6.6

Ask | Recall the reported IC50 of CC1(C)CCc2cc(/C=C3/C(=O)Nc4ccc(F)cc43)ccc2O1 [Example 23] on UniProt:P00533 and write it down.
Reply | 32.9

###

# measurement_target: PDGFR-β (Homo sapiens)
# Sequence (P09619 33-1106): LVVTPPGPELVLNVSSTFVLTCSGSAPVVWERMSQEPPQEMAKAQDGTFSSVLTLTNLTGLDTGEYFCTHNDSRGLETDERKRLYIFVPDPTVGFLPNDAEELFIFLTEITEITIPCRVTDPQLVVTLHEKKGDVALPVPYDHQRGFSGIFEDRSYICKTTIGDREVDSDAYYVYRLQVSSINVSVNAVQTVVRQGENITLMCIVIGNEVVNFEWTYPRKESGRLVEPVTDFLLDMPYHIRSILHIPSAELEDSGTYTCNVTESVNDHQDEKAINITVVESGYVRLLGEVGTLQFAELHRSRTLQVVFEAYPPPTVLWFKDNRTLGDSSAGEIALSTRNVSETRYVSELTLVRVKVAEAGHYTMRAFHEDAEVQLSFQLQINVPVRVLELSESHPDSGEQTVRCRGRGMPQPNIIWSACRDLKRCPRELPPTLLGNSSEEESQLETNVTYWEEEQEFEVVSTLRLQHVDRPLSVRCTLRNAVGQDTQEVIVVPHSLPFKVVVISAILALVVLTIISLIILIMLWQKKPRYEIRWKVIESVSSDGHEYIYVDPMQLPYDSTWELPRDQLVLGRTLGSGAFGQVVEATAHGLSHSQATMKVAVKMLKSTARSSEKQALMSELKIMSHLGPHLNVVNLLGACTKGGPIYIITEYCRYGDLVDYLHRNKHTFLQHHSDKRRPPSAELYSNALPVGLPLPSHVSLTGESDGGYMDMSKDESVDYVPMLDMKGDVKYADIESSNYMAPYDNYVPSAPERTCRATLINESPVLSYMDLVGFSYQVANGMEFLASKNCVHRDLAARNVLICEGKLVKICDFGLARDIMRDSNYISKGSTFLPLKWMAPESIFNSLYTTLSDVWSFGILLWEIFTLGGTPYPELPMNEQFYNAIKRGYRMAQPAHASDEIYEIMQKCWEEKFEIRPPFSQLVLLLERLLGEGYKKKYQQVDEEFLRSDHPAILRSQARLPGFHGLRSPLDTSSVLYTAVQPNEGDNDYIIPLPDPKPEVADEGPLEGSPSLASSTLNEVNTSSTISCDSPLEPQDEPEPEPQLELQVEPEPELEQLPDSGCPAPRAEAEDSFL
# assay_name: Biochemical PDGFR assay (ELISA, PDGFR-β expressing NIH 3T3 cell lysate)
# run_conditions: read-out: bio PDGF IC50
recorded_endpoint: pIC50
// returns pIC50 (minus log10 of molar concentration), number only

{"test_smiles": "O=C(O)CCc1c(/C=C2\\C(=O)Nc3cc(Cl)ccc32)[nH]c2c1CCCC2", "measurement_target": "PDGFR-β (Homo sapiens)", "pIC50": 5.69}

Ask | Specify pIC50 for CCOC(=O)c1c(C)[nH]c(/C=C2\C(=O)Nc3cccc(CCO)c32)c1CCCN(C)C and stop.
Reply | 6.30

Ask | Respond only with pIC50 recorded for COc1ccccc1-c1ccc2c(c1)NC(=O)/C2=C\c1[nH]c2c(c1CCC(=O)O)CCCC2
Reply | 6.06

Ask | Tell us which pIC50 value is on record for CN(C)CCCc1c(/C=C2\C(=O)Nc3ccccc32)[nH]c2c1CCCC2
Reply | 7.40

###

Quick reference: pIC50 of the listed items.
# measurement_target: EGFR (Homo sapiens)
# assay_name: Biochemical EGFR assay (ELISA, A431 cell lysate)
# Design: A431 cell lysate (Screening Lab, SUGEN, Inc.); host or cells: A431
# run_conditions: read-out: bio EGFr IC50
pIC50: −log10 of the molar value.

Sample records with pIC50:
{"test_smiles": "COc1cc(C)c(C=C2C(=O)Nc3cc(NC(C)=O)ccc32)cc1C(C)C", "pIC50": "< 4.00"}
{"test_smiles": "COc1cccc(-c2ccc3c(c2)NC(=O)/C3=C\\c2[nH]c3c(c2CCC(=O)O)CCCC3)c1", "pIC50": 5.15}
{"test_smiles": "O=C(O)CCc1c(/C=C2\\C(=O)Nc3ncccc32)[nH]c2c1CCCC2", "pIC50": "< 4.90"}

Ask | Given the compound Cc1cccc2c1/C(=C/c1cc3ccccc3[nH]1)C(=O)N2 , write its reported pIC50.
Reply | < 4.00

###

# pIC50 per record follows
# measurement_target: UniProtKB P09619
# assay_name: Biochemical PDGFR assay (ELISA, PDGFR-β expressing NIH 3T3 cell lysate)
# run_conditions: read-out: bio PDGF IC50
Scale note: pIC50 = -log10(concentration in M).

In the examples that follow, each entry is paired with its recorded pIC50.
{"compound": "CC(=O)c1ccc2c(c1)C(=Cc1cc3ccccc3[nH]1)C(=O)N2 [Example 158]", "pIC50": 4.74}
{"compound": "O=C1Nc2ccc(C(=O)O)cc2/C1=C/c1cc2ccccc2[nH]1 [Example 161]", "pIC50": 4.60}

Ask | Retrieve pIC50 measured for CCOC(=O)c1c(C)[nH]c(/C=C2\C(=O)Nc3ccc(S(=O)(=O)NC)cc32)c1CCCN(C)C [Example 137] and print it.
Reply | 5.21

Ask | Supply measured pIC50 of NC(=O)CCc1c(/C=C2\C(=O)Nc3ccccc32)[nH]c2c1CCCC2 [Example 199] in your reply.
Reply | 6.05

Ask | Quick one: give measured pIC50 for CN(C)CCCc1c(/C=C2\C(=O)Nc3cccc(CCO)c32)[nH]c2ccccc12 [Example 150]
Reply | 6.47

Ask | Name the recorded pIC50 of the compound listed here: CCOC(=O)c1c(C)[nH]c(/C=C2\C(=O)Nc3ccc(Cl)cc32)c1CCC(=O)O [Example 112]
Reply | 7.70

Ask | Using known records, supply pIC50 for Cc1cccc2c1/C(=C/c1[nH]c3c(c1CCC(=O)O)CCCC3)C(=O)N2 [Example 193]
Reply | 4.35

###

# measurement_target: chimeric receptor containing the EGFR extracellular domain and intracellular HER2 kinase domain (Homo sapiens)
# Construct: fused on or other part: EGFR ectodomain + HER2 intracellular part, ATP-site indolinones: HER2's kinase
# Sequence (P04626 720-1255 limits assumed, change not shown): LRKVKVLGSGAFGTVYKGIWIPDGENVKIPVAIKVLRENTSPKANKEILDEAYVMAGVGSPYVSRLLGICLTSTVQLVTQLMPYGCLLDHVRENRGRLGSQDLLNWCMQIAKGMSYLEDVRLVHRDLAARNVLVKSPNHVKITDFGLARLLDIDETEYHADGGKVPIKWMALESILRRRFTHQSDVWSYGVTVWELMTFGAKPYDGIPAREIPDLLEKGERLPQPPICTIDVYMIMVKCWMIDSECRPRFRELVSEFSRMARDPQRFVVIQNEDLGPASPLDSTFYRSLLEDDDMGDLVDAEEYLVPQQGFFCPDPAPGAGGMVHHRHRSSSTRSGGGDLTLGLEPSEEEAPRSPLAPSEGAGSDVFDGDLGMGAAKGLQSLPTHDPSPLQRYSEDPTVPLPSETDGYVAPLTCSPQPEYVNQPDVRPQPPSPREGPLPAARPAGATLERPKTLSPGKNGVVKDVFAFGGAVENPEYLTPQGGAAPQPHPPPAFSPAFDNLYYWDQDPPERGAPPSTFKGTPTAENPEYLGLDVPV
# assay_name: EGF Receptor-HER2 chimeric receptor assay in whole cells (ELISA)
# run_conditions: read-out: HER-2 kinase IC50
# pIC50 per record follows
The meaning of pIC50 here: minus log10 of the concentration in molar units.

{"compound": "COc1c(C(C)C)cc(/C=C2\\C(=O)Nc3cccc(C)c32)cc1C(C)C [Example 53]", "pIC50": 4.09}
{"compound": "COc1c(C(C)C)cc(/C=C2/C(=O)Nc3cc(N)ccc32)cc1C(C)C [Example 32]", "pIC50": 4.04}

Ask | Return pIC50 (reported value) for this compound: COc1ccc(/C=C2/C(=O)Nc3ncccc32)cc1C1CCCC1 [Example 47]
Reply | 4.22

Ask | Report measured pIC50; entry is COc1cc(C)c(C=C2C(=O)Nc3cc(NC(C)=O)ccc32)cc1C(C)C [Example 27]
Reply | 4.80

Ask | Specify pIC50 for COc1ccc(/C=C2/C(=O)Nc3cc(NC(C)=O)ccc32)cc1-c1ccsc1 [Example 18] and stop.
Reply | 5.08

Ask | Give me measured pIC50, please, for this compound: Cc1cc(CCC(=O)O)c(/C=C2\C(=O)Nc3ccc(Br)cc32)[nH]1 [Compound 116]
Reply | 5.22

Ask | Give pIC50 for COc1c(C(C)C)cc(/C=C2/C(=O)Nc3ccc(C(C)=O)cc32)cc1C(C)C [Example 5]
Reply | 5.19

Ask | Please supply the value of reported pIC50 for the item COc1cc(C)c(/C=C2/C(=O)Nc3ncccc32)cc1C(C)C [Example 45]
Reply | 4.24

Ask | Please indicate pIC50 recorded for COc1ccc2c(c1)/C(=C\c1cc(C(C)C)c(OC)c(C(C)C)c1)C(=O)N2 [Example 17]
Reply | 5.11

Ask | State its pIC50: CC(=O)Nc1ccc2c(c1)NC(=O)/C2=C/c1ccc(OCCN2CCOCC2)c(C(C)(C)C)c1 [Example 55]
Reply | 4.05

Ask | State its pIC50: O=C1Nc2ccc(Cl)cc2/C1=C\c1ccc2c(c1)CCO2 [Example 14]
Reply | 4.64
